MEASUREMENT TARGET: PI3K α (p110α/p85α) (Homo sapiens)
Construct: purchased Upstate / Millipore Corporation
Sequence (P42336 whole entry): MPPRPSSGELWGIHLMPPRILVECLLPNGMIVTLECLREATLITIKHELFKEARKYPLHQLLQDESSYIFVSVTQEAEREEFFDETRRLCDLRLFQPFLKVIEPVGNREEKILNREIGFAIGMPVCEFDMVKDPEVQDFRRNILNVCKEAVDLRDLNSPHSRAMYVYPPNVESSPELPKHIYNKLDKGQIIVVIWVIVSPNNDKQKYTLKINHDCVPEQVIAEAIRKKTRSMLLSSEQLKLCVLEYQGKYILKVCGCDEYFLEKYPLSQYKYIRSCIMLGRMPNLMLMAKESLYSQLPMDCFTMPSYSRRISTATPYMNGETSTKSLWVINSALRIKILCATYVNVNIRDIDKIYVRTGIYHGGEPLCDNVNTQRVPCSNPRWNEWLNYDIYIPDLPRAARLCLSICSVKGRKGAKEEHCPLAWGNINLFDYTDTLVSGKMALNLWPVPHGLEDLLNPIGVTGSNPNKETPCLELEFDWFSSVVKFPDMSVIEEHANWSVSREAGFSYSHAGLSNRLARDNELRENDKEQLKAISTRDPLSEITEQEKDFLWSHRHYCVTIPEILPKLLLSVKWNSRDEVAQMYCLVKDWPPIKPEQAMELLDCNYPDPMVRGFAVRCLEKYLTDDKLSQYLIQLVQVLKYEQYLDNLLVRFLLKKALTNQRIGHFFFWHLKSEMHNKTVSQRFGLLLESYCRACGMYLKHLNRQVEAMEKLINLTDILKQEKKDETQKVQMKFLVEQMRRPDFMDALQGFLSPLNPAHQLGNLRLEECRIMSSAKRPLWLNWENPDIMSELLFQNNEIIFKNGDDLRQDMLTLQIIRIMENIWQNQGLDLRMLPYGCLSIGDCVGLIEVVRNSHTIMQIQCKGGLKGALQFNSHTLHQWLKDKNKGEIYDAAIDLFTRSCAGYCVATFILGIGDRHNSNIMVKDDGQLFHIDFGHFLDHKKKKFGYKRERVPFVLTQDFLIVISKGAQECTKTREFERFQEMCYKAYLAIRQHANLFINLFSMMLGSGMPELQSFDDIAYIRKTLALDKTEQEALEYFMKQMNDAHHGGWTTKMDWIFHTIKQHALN
Sequence (P27986 whole entry partner): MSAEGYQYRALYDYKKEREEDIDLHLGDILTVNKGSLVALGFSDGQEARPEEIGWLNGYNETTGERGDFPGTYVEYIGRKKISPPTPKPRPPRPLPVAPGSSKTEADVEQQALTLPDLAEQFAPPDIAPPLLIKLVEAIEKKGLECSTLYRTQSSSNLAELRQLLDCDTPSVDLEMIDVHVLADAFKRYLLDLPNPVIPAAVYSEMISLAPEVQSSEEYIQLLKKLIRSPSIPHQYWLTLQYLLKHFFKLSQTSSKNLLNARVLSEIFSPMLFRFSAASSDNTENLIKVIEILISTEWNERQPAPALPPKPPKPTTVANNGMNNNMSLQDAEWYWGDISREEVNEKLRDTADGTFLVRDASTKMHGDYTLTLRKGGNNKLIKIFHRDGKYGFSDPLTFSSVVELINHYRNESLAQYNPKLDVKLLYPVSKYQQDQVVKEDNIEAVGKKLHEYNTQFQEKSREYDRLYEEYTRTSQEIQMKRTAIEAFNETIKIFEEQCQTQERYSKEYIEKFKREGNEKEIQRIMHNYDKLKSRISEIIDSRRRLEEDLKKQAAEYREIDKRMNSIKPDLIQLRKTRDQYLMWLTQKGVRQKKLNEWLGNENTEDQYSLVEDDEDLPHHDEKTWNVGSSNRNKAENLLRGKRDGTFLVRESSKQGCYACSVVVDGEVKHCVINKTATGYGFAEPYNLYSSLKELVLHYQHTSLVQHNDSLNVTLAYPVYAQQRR
PROCEDURE SUMMARY: PI 3-Kinase (human) HTRF assay, PI3K α
Format: biochemical
MEASUREMENT PARAMETERS: read-out: PI3K α IC50
pIC50: −log10 of the molar value.
READOUT LABEL: pIC50

# MOLECULE, READOUT LABEL, MEASUREMENT
measured = [
    ("CN1CCC(n2cnc3ccc(-c4cnc(Cl)c(NS(C)(=O)=O)c4)cc3c2=O)CC1 [Compound 526]", "pIC50", "> 7.00"),
    ("Nc1nc2cc(-c3ccn4ncc(C(=O)N5CCCC5)c4c3)ccc2o1 [Compound 346]", "pIC50", "> 7.00"),
    ("Nc1nc2cc(-c3ccc4ncc(C(=O)N5CC[C@@H](N6CCOCC6)C5)n4c3)ccc2o1 [Compound 466]", "pIC50", "> 6.00"),
    ("O=C(c1cnc2ccc(-c3ccc4c(Nc5ccccc5)noc4c3)cn12)N1CCOCC1 [Compound 509]", "pIC50", "< 5.00"),
    ("Nc1nc2cc(-c3ccc4ncc(C(=O)Nc5cccnc5)n4c3)ccc2o1 [Compound 190]", "pIC50", "> 7.00"),
    ("Nc1nc2cc(-c3ccc4ncc(N5CC(N6CCN(CCO)CC6)C5)nc4c3)ccc2o1 [Compound 333]", "pIC50", "> 7.00"),
    ("CN(C)CC(=O)N1CCN(c2cnc3ccc(-c4ccc5oc(N)nc5c4)cc3n2)CC1 [Compound 217]", "pIC50", "> 7.00"),
]

From here, focus on the item given below.
Problem: Dear colleague, I am looking for the recorded pIC50 of the following molecule: Cc1ccn(C2CCN(C(=O)c3cnc4ccc(-c5ccc6oc(N)nc6c5)cn34)CC2)n1 [Compound 297]
Result: > 6.00

====

MEASUREMENT TARGET: PI3K δ (Homo sapiens)
Construct: purchased Upstate / Millipore Corporation
Sequence (O00329 whole entry): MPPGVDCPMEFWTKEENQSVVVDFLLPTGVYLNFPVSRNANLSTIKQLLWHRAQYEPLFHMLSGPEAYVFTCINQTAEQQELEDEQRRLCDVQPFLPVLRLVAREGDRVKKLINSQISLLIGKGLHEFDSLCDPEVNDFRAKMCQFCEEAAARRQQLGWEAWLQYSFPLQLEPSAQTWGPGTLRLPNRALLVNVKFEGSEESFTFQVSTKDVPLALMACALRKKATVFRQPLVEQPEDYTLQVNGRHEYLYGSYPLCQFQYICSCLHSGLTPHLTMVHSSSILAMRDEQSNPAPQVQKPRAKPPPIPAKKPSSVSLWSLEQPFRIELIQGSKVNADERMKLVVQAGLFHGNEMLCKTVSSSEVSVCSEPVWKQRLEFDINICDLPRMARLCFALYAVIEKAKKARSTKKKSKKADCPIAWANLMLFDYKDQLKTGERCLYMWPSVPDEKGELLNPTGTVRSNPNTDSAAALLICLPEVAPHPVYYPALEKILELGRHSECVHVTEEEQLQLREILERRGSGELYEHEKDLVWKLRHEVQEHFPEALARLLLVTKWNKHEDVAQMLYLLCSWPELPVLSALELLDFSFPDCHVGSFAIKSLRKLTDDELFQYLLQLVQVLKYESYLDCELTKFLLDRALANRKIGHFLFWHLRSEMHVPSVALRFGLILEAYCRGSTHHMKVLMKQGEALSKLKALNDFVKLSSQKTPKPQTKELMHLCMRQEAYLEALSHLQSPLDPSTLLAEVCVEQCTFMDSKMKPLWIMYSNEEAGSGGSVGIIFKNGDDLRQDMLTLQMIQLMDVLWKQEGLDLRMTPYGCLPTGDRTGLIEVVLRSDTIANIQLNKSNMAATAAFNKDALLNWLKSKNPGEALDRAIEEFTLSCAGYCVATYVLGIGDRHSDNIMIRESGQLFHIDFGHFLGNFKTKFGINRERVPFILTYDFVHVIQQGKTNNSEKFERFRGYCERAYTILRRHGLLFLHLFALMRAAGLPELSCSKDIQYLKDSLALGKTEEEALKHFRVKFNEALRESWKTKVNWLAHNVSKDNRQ
Sequence (P27986 whole entry partner): as the sequence (P27986 whole entry partner) above
PROCEDURE SUMMARY: PI 3-Kinase (human) HTRF assay, PI3K δ
Type: biochemical
MEASUREMENT PARAMETERS: read-out: PI3K δ IC50
READOUT LABEL: IC50

# MOLECULE, IC50
rows = [
    ("O=C(c1cnc2ccc(-c3cncc(NS(=O)(=O)c4ccc(F)cc4F)c3)cn12)N1CCOCC1 [Compound 425]", "< 1000 nM"),
    ("CN1CCC(n2cnc3ccc(-c4cnc(Cl)c(NS(=O)(=O)c5ccccc5)c4)cc3c2=O)CC1 [Compound 527]", "< 100 nM"),
    ("Cc1cc(-c2ccc3nc(N)oc3c2)cn2c(CCN3CCN(C)CC3)nnc12 [Compound 548]", "> 10000 nM"),
    ("CCN1CCN(C(=O)c2cnc3ccc(-c4ccc5oc(N)nc5c4)cn23)CC1 [Compound 141]", "> 10000 nM"),
]

Problem: Dear colleague, I am looking for the recorded IC50 of the following molecule: Nc1nc2cc(-c3ccc4ncc(C(=O)N5CC5)n4c3)ccc2o1 [Compound 340]
Result: > 10000 nM

Problem: Would you kindly share the measured IC50 for Nc1nc2cc(-c3ccn4ncc(-c5ccncc5)c4c3)ccc2o1 [Compound 356] ?
Result: < 100 nM

Problem: For Nc1nc2cc(-c3ccc4ncc(N5CCC(n6ccnc6)CC5)nc4c3)ccc2o1 [Compound 345] , what is its reported IC50?
Result: < 1000 nM

Problem: So what does the record say about IC50 for Cc1cc(-c2ccc3oc(N)nc3c2)cc2c(-c3ccncc3)cnn12 [Compound 397] ?
Result: < 1000 nM
